target: WDR5 (Homo sapiens, UniProt P61964); assay: Surface Plasmon Resonance (SPR) assay; format: binding; parameters: Full length WDR5 with an N-terminal His tag and C-terminal AviTag; His tag (N); made in house; host or cells: E. coli; conditions: read-out: SPR Kd
experimental.endpoint: Kd (nM)

Solved entries:
{"smiles.input": "C[C@H]1CN(c2cc(F)c(C3=CCN(c4ccnc(C#N)n4)CC3)c(F)c2NC(=O)c2c[nH]c(=O)cc2C(F)F)CCN1C", "measured.value": 1.65}
{"smiles.input": "C[C@H]1CN(c2cc(F)c(C3=CCN(c4ncc(F)cn4)C3)c(F)c2NC(=O)c2c[nH]c(=O)cc2C(F)F)CCN1C", "measured.value": 1.55}
{"smiles.input": "C[C@@H]1CN(c2ncc(-c3c(F)cc(N4C[C@@H](C)N(C)[C@@H](C)C4)c(NC(=O)c4cn(C)c(=O)cc4C(F)(F)F)c3F)cn2)CCO1", "measured.value": 1.75}

[1] C[C@H]1CN(c2cc(F)c(C3=CCN(C(=O)c4csc(CN(C)C)n4)CC3)c(F)c2NC(=O)c2c[nH]c(=O)cc2C(F)F)CCN1C
[2] CC(C)OC(=O)N1CC=C(c2c(F)cc(N3CCN(C)[C@@H](C)C3)c(NC(=O)c3c[nH]c(=O)cc3C(F)F)c2F)C1
[3] C[C@@H]1CN(c2nc(-c3c(F)cc(N4CCN(C)[C@@H](C)C4)c(NC(=O)c4c[nH]c(=O)cc4C(F)F)c3F)cs2)C[C@H](C)O1
Place the items in sequence of falling Kd. A ranking is expressed here by listing the labels in the requested order. 1, 3, 2

Data origin: patent US20200385371A1
